Item-by-item account of Ki
experimental_system: UniProt:P41595
Sequence (P41595 whole entry): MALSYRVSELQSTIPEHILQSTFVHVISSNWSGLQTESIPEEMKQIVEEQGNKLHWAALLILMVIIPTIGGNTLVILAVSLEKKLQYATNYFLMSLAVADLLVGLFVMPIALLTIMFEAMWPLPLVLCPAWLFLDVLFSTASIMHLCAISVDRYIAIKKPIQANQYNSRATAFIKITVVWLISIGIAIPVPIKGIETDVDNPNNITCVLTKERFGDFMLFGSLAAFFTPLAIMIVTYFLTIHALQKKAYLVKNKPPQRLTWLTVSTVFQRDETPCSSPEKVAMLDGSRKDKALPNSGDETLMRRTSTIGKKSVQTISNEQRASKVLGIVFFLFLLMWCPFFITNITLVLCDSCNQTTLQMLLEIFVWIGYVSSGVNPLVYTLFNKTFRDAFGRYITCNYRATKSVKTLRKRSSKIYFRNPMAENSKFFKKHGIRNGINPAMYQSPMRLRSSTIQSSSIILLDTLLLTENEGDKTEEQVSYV
method_description: Binding affinity to 5HT2B receptor
experimental_conditions: read-out: Ki
Your answer should be a plain number; it is taken to be in µM.

O=C(NCc1ccc(C2CCCCC2)cc1)[C@@H]1CCCN1 ... 4.12
COc1cc(OC2CCC(C)(C)CC2)c(F)cc1CNC(=O)[C@@H]1CCCN1 ... 3.94

Give Ki for this entry on UniProt:P41595: "O=C(NCc1ccc(-c2ccc(Cl)cc2)cc1F)N1CCNCC1"
3.5

Give Ki for this entry on UniProt:P41595: "O=C(NCc1ccc(OCc2ccccc2)cc1)[C@@H]1CCCN1"
1.72

Give Ki for this entry on UniProt:P41595: "CC1(C)CCC(Oc2cc(F)c(CNC(=O)[C@@H]3CCCN3)cc2F)CC1"
1.67

Give Ki for this entry on UniProt:P41595: "O=C(NCc1ccc(Oc2cccc(F)c2)cc1)[C@@H]1CCCN1"
2.4

---

method_description: Ratio of free drug level in brain to plasma in Sprague-Dawley rat
Assay type: ADME, cell-free
experimental_conditions: brain and plasma
property_measured: Kp uu
Please respond with just the number, no unit label.

Quickly give me recorded Kp uu for "COc1cc(OC2CCC(C)(C)CC2)c(F)cc1CNC(=O)[C@@H]1CCCN1"
0.4

---

method_description: Bioavailability in rat
Type: ADME, organism-based
experimental_conditions: in vivo
property_measured: bioavailability (%)
Your answer should be a plain number; it is taken to be in %.

Quickly give me recorded bioavailability for "COc1cc(OC2CCC(C)(C)CC2)c(F)cc1CNC(=O)[C@@H]1CCCN1"
5.5

These measurements were taken from ChEMBL document CHEMBL1156305.
